Entries annotated with measured IC50
System: HIV/MLAV pseudovirus (Měnglà virus glycoprotein)
experimental.details: organism not typed
Format: cell-based
experimental.parameters: read-out: IC50 HIV/MLAV
Where a SMILES comes first, the peptide text is derived from it. The star is where a group is joined. Cbz = O=C(OCc1ccccc1)*; CHN2 = [N-]=[N+]=C*; tBu = CC(C)(C)*

CC(C)(C)Oc1ccc(C[C@H](NC(=O)[C@H](Cc2ccccc2)NC(=O)OCc2ccccc2)C(=O)C=[N+]=[N-])cc1 [Cathepsin L Inhibitor III] (Cbz-Phe-Tyr(tBu)-CHN2): 7.14 µM
NCCc1ccc(S(=O)(=O)F)cc1 [AEBSF]: 36.7 µM

Turning now to a further molecule:
Exercise: Request the reported IC50 associated with CCCNC(=O)[C@H]1O[C@@H]1C(=O)N[C@H](C(=O)N1CCC[C@H]1C(=O)O)[C@@H](C)CC [CA‐074]
Key: > 100 µM

* * *

System: HIV/MARV pseudovirus (Marburg virus Musoke glycoprotein)
experimental.details: organism not typed
Format: cell-based
experimental.parameters: A549, 48 h, read-out: IC50 HIV/MARV
Where a SMILES comes first, the peptide text is derived from it. The star is where a group is joined. Cbz = O=C(OCc1ccccc1)*
Attribute: pIC50
pIC50 (log units): -log10 of the concentration in mol/L.

Fc1ccc([C@@H]2CCNC[C@H]2COc2ccc3c(c2)OCO3)cc1 [Paroxetine]: 5.74
CN(C)CCCN1c2ccccc2CCc2ccccc21 [Imipramine]: 5.26
CC(=O)N[C@@H](CC(C)C)C(=O)N[C@@H](CC(C)C)C(=O)N[C@H](C=O)CCCNC(=N)N [Leupeptin]: 6.04

Exercise: Would you mind telling me what pIC50 value was observed for CC(C)COCC(CN(Cc1ccccc1)c1ccccc1)N1CCCC1 (stereo not shown) [Bepridil] ?
Key: 5.13

Exercise: Okay, and CCCCOc1cc(C(=O)NCCN(CC)CC)c2ccccc2n1 [Dibucaine] ?
Key: 5.24

Exercise: Another compound: CC(C)[C@H](NC(=O)OCc1ccccc1)C(=O)N[C@H](C=O)Cc1ccccc1 [MDL‐28170] (Cbz-Val-Phe-aldehyde)
Key: 5.77

Exercise: Next compound: CN(C)CCOc1ccc(/C(=C(/CCCl)c2ccccc2)c2ccccc2)cc1 [Toremifene]
Key: 5.76

* * *

experimental.details: in vitro
experimental.parameters: human
Where a SMILES comes first, the peptide text is derived from it. The star is where a group is joined. Cbz = O=C(OCc1ccccc1)*
Catalogue of compounds with associated CC50

Known CC50 results, listed for orientation:
CN(C)CCOc1ccc(/C(=C(/CCCl)c2ccccc2)c2ccccc2)cc1: 25.3 µM
CC(=O)N[C@@H](CC(C)C)C(=O)N[C@@H](CC(C)C)C(=O)N[C@H](C=O)CCCNC(=N)N: > 100 µM
CCCCOc1cc(C(=O)NCCN(CC)CC)c2ccccc2n1: 51.3 µM
CC(C)[C@H](NC(=O)OCc1ccccc1)C(=O)N[C@H](C=O)Cc1ccccc1 [MDL‐28170] (Cbz-Val-Phe-aldehyde): > 100 µM

Next compound, please.
Exercise: So what's the measured CC50 for this one? CC(C)COCC(CN(Cc1ccccc1)c1ccccc1)N1CCCC1 (centres unmarked)
Key: 34.7 µM

All values here come from paper PMC9161972.
